target: human full length recombinant Mps-1 kinase (Homo sapiens (Human)); test: Mps-1 Kinase Assay (TR-FRET); settings: 10 μM ATP, 1 μM biotinylated peptide substrate, 60 min at 22° C., read-out: Mps-1 Inhibition, IC50 in M
pIC50: −log10 of the molar value.
Exercise: for every item that follows, state its recorded pIC50.

Lab note: measured pIC50 of CCOc1cc(N2CCOC2=O)ccc1Nc1nc2ccc(-c3ccc(NC(=O)Cc4ccc(F)cc4)cc3)cn2n1 was ≥ 9.00

For reference, reported pIC50 for COc1cc(CN2CCOCC2)ccc1Nc1nc2ccc(-c3ccc(C(=O)NCc4ccc(F)cc4)cc3)cn2n1 stands at ≥ 9.00

Recorded result, CCOc1cc(C(=O)N2CC(O)C2)ccc1Nc1nc2ccc(-c3ccc(C(=O)NCc4ccc(F)cc4)cc3)cn2n1 , pIC50: ≥ 9.00

Sample Cc1nc(N2CCOCC2)ccc1Nc1nc2ccc(-c3ccc(C(=O)NCc4ccc(F)cc4)cc3)cn2n1 ; pIC50 observed: ≥ 9.00

Note to self: pIC50 recorded for COc1cc(C(=O)N2CC3(COC3)C2)ccc1Nc1nc2ccc(-c3ccc(C(=O)NCC4CC4)cc3)cn2n1 was ≥ 9.00

CCOc1cc(C(=O)N2CCOCC2)ccc1Nc1nc2ccc(-c3ccc(NC(=O)Cc4ccc(F)cc4)nc3)cn2n1 has a reported pIC50 of ≥ 9.00

Noted for Cc1cc(C(=O)N2CC3(COC3)C2)ccc1Nc1nc2ccc(-c3ccc(C(=O)NCc4ccc(F)cc4)cc3)cn2n1 : its pIC50 reads ≥ 9.00

====

biological target: human full length recombinant Mps-1 kinase (Homo sapiens (Human), UniProt P33981); assay: Mps-1 Kinase Assay (TR-FRET); details: 10 μM ATP, 1 μM biotinylated peptide substrate, 60 min at 22° C., read-out: Mps-1 Inhibition, IC50 in M
Sequence (P33981 whole entry): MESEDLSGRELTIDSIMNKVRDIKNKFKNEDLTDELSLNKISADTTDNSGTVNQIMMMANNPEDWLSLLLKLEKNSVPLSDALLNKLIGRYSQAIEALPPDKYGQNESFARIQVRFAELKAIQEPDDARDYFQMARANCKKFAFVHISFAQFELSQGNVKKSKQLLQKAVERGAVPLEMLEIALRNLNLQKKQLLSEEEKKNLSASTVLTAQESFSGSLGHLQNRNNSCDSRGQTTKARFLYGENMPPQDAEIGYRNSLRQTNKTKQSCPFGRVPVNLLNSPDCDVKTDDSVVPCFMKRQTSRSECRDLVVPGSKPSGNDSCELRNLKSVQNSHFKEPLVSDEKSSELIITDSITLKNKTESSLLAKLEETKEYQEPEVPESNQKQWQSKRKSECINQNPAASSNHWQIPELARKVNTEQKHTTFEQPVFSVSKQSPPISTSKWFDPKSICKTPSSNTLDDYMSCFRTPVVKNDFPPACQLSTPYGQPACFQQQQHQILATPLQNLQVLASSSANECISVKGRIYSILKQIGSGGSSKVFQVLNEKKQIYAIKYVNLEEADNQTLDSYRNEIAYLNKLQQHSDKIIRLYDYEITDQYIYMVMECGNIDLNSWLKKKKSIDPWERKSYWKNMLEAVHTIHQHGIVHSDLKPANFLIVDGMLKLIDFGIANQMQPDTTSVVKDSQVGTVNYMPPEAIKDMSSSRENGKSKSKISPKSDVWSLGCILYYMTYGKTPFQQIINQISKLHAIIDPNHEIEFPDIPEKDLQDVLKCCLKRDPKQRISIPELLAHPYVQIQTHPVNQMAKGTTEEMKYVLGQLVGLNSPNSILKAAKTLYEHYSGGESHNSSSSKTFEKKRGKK
Observed Property: IC50

Entry CCOc1cc(C(=O)N2CCOCC2)ccc1Nc1nc2ccc(-c3ccc(NC(=O)CC4CC4)cc3)cn2n1 [Example 01.02] — recorded IC50 = ≤ 1 nM

The compound identified as CCOc1cc(OC2CCN(C)CC2)ccc1Nc1nc2ccc(-c3ccc(NC(=O)Cc4ccc(F)cc4)cc3)cn2n1 [Example 02.34] registered its IC50 at ≤ 1 nM

Quick note, IC50 for COc1cc(C(=O)N2CCOCC2)ccc1Nc1nc2ccc(-c3ccc(NC(=O)Cc4ccc(F)cc4)nc3)cn2n1 [Example 11.01] landed at 1.62 nM

The compound listed as CCOc1cc(C(=O)N2CCNCC2)ccc1Nc1nc2ccc(-c3ccc(NC(=O)Cc4ccc(F)cc4)cc3)cn2n1 [Example 02.06] has a reported IC50 of ≤ 1 nM

In plain terms, CCOc1cc(C(=O)N2CC3(COC3)C2)ccc1Nc1nc2ccc(-c3ccc(C(=O)NCc4ccc(F)cc4)cc3)cn2n1 [Example 04.12] has a documented IC50 of ≤ 1 nM

Reported IC50 of COc1cc(C2=NCCO2)ccc1Nc1nc2ccc(-c3ccc(NC(=O)Cc4ccc(F)cc4)cc3)cn2n1 [Example 02.14] : ≤ 1 nM

# compound COc1ccc(C(=O)N2CCOCC2)cc1Nc1nc2ccc(-c3ccc(NC(=O)Cc4ccc(F)cc4)cc3)cn2n1 [Example 02.41] ; its IC50 = ≤ 1 nM

Recorded result, COc1cc(N2CCOC2=O)ccc1Nc1nc2ccc(-c3ccc(C(=O)NCc4ccc(F)cc4)cc3)cn2n1 [Example 04.03] , IC50: ≤ 1 nM

Input COc1cc(N2CCN(C)CC2)ccc1Nc1nc2ccc(-c3ccc(NC(=O)CC4CC4)cc3)cn2n1 [Example 01.03] . Output IC50: 6.02 nM

Measured IC50 of Cc1cc(C2=NCCO2)ccc1Nc1nc2ccc(-c3ccc(NC(=O)Cc4ccc(F)cc4)cc3)cn2n1 [Example 02.15] : ≤ 1 nM

// sample COc1cc(N2CCN(C)CC2)ccc1Nc1nc2ccc(-c3ccc(NC(=O)Cc4ccc(F)cc4)cc3)cn2n1 [Example 02.08] , its IC50 was 1.05 nM

So, COc1cc(C2=NC(C)(C)CO2)ccc1Nc1nc2ccc(-c3ccc(NC(=O)Cc4ccc(F)cc4)cc3)cn2n1 [Example 02.03] ? Its IC50 was 1.04 nM

Entry under test: COc1cc(C(=O)N2CCC(O)CC2)ccc1Nc1nc2ccc(-c3ccc(C(=O)NCc4ccc(F)cc4)cc3)cn2n1 [Example 04.10] . Its IC50 was ≤ 1 nM

Record summary for COc1cc(C(=O)N2CCS(=O)(=O)CC2)ccc1Nc1nc2ccc(-c3ccc(NC(=O)Cc4ccc(F)cc4)cc3)cn2n1 [Example 02.18] : reported IC50 = ≤ 1 nM

====

target: human full length recombinant Mps-1 kinase (Homo sapiens (Human), UniProt P33981); assay: Mps-1 Kinase Assay (TR-FRET); settings: 10 μM ATP, 1 μM biotinylated peptide substrate, 60 min at 22° C., read-out: Mps-1 Inhibition, IC50 in M
pIC50: −log10 of the molar value.
For each entry below, report its pIC50 value.

Lab note: measured pIC50 of O=C(NCc1ccc(F)cc1)c1ccc(-c2ccc3nc(Nc4ccc(C(=O)N5CCOCC5)cc4OCC(F)F)nn3c2)cc1 was ≥ 9.00

COc1cc(C(=O)N2CCOCC2)ccc1Nc1nc2ccc(-c3ccc(C(=O)NCc4ccc(F)cc4)c(Cl)c3)cn2n1 has a reported pIC50 of ≥ 9.00

# pIC50 of COc1cc(C(=O)N2CCS(=O)(=O)CC2)ccc1Nc1nc2ccc(-c3ccc(C(=O)NCc4ccc(F)cc4)cc3)cn2n1 = ≥ 9.00

====

molecular target: human full length recombinant Mps-1 kinase (Homo sapiens (Human), UniProt P33981); experiment: Mps-1 Kinase Assay (TR-FRET); conditions: 10 μM ATP, 1 μM biotinylated peptide substrate, 60 min at 22° C., read-out: Mps-1 Inhibition, IC50 in M
pIC50: −log10 of the molar value.
Observed Property: pIC50

Summary for this compound, COc1cc(C(=O)N2CC(F)C2)ccc1Nc1nc2ccc(-c3ccc(C(=O)NCc4ccc(F)cc4)cc3)cn2n1 : pIC50 is ≥ 9.00

Looking up O=C(Cc1ccc(F)cc1)Nc1ccc(-c2ccc3nc(Nc4ccc(C(=O)N5CC(O)C5)cc4OCC(F)(F)F)nn3c2)cc1 , I found its pIC50 recorded as ≥ 9.00

# compound COc1cc(N2CCOC2=O)ccc1Nc1nc2ccc(-c3ccc(C(=O)NCc4ccc(F)cc4)c(C)c3)cn2n1 ; its pIC50 = 8.96

For record Cc1nc(N2CCOCC2)ccc1Nc1nc2ccc(-c3ccc(NC(=O)Cc4ccc(F)cc4)cc3)cn2n1 the listed pIC50 is ≥ 9.00
